target: histidine-binding protein (HisBP) (Escherichia coli, UniProt P0AEU0); test: biochemical; conditions: KD fitted to SAXS χlin. curves, ESRF, 5s exposure, HisBP 38 µM
Sequence (P0AEU0 23-260): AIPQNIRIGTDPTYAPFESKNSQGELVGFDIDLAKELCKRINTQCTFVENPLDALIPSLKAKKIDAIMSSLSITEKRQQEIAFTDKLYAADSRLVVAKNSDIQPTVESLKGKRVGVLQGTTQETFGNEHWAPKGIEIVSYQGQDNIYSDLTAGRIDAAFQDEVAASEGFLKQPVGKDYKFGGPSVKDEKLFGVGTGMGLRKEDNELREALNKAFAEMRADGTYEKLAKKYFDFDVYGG
assayMetric: pKd
Just the number, please; pKd means minus log10 of the concentration in mol/L.

Req: # pKd lookup, item N[C@@H](Cc1c[nH]cn1)C(=O)O [His, histidine]
Resp: 7.00

====

target: histidine-binding protein (HisBP) (Escherichia coli); experiment: biochemical; conditions: KD fitted to SAXS Rg curves, Diamond, 40s exposure, HisBP 80 µM
assayMetric: Kd (nM)
Numbers only here, please. The scale is nM.

[[record]]
smilesrepr = "N[C@@H](Cc1c[nH]cn1)C(=O)O"
endpointvalue = 2200


Below: the item to evaluate.
Req: # Kd lookup, item "N=C(N)NCCC[C@H](N)C(=O)O"
Resp: 1100

====

target: histidine-binding protein (HisBP) (Escherichia coli); assay: biochemical; conditions: K D fitted to SAXS V R titration curves, Diamond, 40s exposure, […] 10^14 photons, HisBP 40 µM
assayMetric: pKd
Just the number, please; pKd means minus log10 of the concentration in mol/L.

Here are 2 molecules together with their reported answers.
[[record]]
molecule = "N[C@@H](Cc1c[nH]cn1)C(=O)O [His, histidine]"
endpointvalue = 7.89

[[record]]
molecule = "NCCCC[C@H](N)C(=O)O [Lys, lysine]"
endpointvalue = 3.49


Below: the item to evaluate.
Req: # pKd lookup, item N=C(N)NCCC[C@H](N)C(=O)O [Arg, arginine]
Resp: 5.32

====

target: histidine-binding protein (HisBP) (Escherichia coli); experiment: biochemical; conditions: KD fitted to SAXS χlin. curves, AustSynch, 20s exposure, HisBP 38 µM
assayMetric: Kd (µM)
Numbers only here, please. The scale is µM.

[[record]]
smilesrepr = "NCCCC[C@H](N)C(=O)O"
unitdescriptor = "µM"
endpointvalue = 150

[[record]]
smilesrepr = "N[C@@H](Cc1c[nH]cn1)C(=O)O"
unitdescriptor = "µM"
endpointvalue = 4.5


Below: the item to evaluate.
Req: Request: Kd, test system histidine-binding protein (HisBP) (Escherichia coli), entry "N=C(N)NCCC[C@H](N)C(=O)O"
Resp: 10

====

biological target: histidine-binding protein (HisBP) (Escherichia coli, UniProt P0AEU0); assay: biochemical; conditions: KD fitted to SAXS Rg curves, DESY, 4s exposure, HisBP 10 µM
assayMetric: pKd
Just the number, please; pKd means minus log10 of the concentration in mol/L.

[[record]]
compound = "NCCCC[C@H](N)C(=O)O [Lys, lysine]"
assaymetric = "pKd"
endpointvalue = 5.89


Below: the item to evaluate.
Req: # pKd lookup, item N[C@@H](Cc1c[nH]cn1)C(=O)O [His, histidine]
Resp: 4.00

====

Below: a set of entries, each annotated with reported Kd.
molecular target: UniProt P0AEU0; assay: biochemical; conditions: KD fitted to SAXS Rg curves, DESY, 4s exposure, HisBP 80 µM

Here are 2 compounds together with their reported answers.
[[record]]
smilesrepr = "N=C(N)NCCC[C@H](N)C(=O)O"
systemundertest = "UniProt P0AEU0"
endpointvalue = "27 µM"

[[record]]
smilesrepr = "NCCCC[C@H](N)C(=O)O"
systemundertest = "UniProt P0AEU0"
endpointvalue = "36 µM"


Below: the item to evaluate.
Req: # Kd lookup, item "N[C@@H](Cc1c[nH]cn1)C(=O)O"
Resp: 8.2 µM

====

Below: a set of entries, each annotated with reported pKd.
biological target: histidine-binding protein (HisBP) (Escherichia coli); assay: biochemical; conditions: K D fitted to SAXS V R titration curves, AustSynch, 20s exposure, […] 10^13 photons, HisBP 38 µM
Just the number, please; pKd means minus log10 of the concentration in mol/L.

[[record]]
smilesrepr = "N[C@@H](Cc1c[nH]cn1)C(=O)O"
endpointvalue = 5.82

[[record]]
smilesrepr = "NCCCC[C@H](N)C(=O)O"
endpointvalue = 4.49


Below: the item to evaluate.
Req: # pKd lookup, item "N=C(N)NCCC[C@H](N)C(=O)O"
Resp: 5.52

====

target: UniProtKB P0AEU0; assay: biochemical; details: KD fitted to SAXS χlin. curves, Diamond, 40s exposure, HisBP 20 µM
Below: a set of entries, each annotated with reported Kd.
Numbers only here, please. The scale is µM.

[[record]]
smilesrepr = "N[C@@H](Cc1c[nH]cn1)C(=O)O"
endpointvalue = 0.07


Below: the item to evaluate.
Req: Request: Kd, test system UniProtKB P0AEU0, entry "N=C(N)NCCC[C@H](N)C(=O)O"
Resp: 1.4

====

Below: a set of entries, each annotated with reported Kd.
target: histidine-binding protein (HisBP) (Escherichia coli); test: biochemical; conditions: K D fitted to SAXS V R titration curves, Diamond, 40s exposure, […] 10^14 photons, HisBP 80 µM
Numbers only here, please. The scale is µM.

Here are 2 compounds together with their reported answers.
[[record]]
compound = "NCCCC[C@H](N)C(=O)O [Lys, lysine]"
assaymetric = "Kd"
endpointvalue = 89

[[record]]
compound = "N[C@@H](Cc1c[nH]cn1)C(=O)O [His, histidine]"
assaymetric = "Kd"
endpointvalue = 1.3


Below: the item to evaluate.
Req: # Kd lookup, item N=C(N)NCCC[C@H](N)C(=O)O [Arg, arginine]
Resp: 7.3

====

biological target: UniProtKB P0AEU0; experiment: biochemical; details: KD fitted to SAXS Rg curves, AustSynch, 20s exposure, HisBP 38 µM
assayMetric: pKd
Just the number, please; pKd means minus log10 of the concentration in mol/L.

Here are 2 compounds together with their reported answers.
[[record]]
compound = "NCCCC[C@H](N)C(=O)O [Lys, lysine]"
endpointvalue = 3.47

[[record]]
compound = "N=C(N)NCCC[C@H](N)C(=O)O [Arg, arginine]"
endpointvalue = 7.28


Below: the item to evaluate.
Req: # pKd lookup, item N[C@@H](Cc1c[nH]cn1)C(=O)O [His, histidine]
Resp: 5.20

====

target: histidine-binding protein (HisBP) (Escherichia coli, UniProt P0AEU0); assay: biochemical; settings: K D fitted to SAXS V R titration curves, DESY, 4s exposure, […] 10^13 photons, HisBP 20 µM
assayMetric: pKd
Just the number, please; pKd means minus log10 of the concentration in mol/L.

Req: # pKd lookup, item "N[C@@H](Cc1c[nH]cn1)C(=O)O"
Resp: 6.00

Req: // query: "NCCCC[C@H](N)C(=O)O"
Resp: 4.21

Req: // query: "N=C(N)NCCC[C@H](N)C(=O)O"
Resp: 4.48

====

Below: a set of entries, each annotated with reported pKd.
target: histidine-binding protein (HisBP) (Escherichia coli); assay: biochemical; conditions: KD fitted to SAXS χlin. curves, ESRF, 5s exposure, HisBP 152 µM
Just the number, please; pKd means minus log10 of the concentration in mol/L.

Here are 2 compounds together with their reported answers.
[[record]]
smilesrepr = "NCCCC[C@H](N)C(=O)O"
endpointvalue = 3.74

[[record]]
smilesrepr = "N[C@@H](Cc1c[nH]cn1)C(=O)O"
endpointvalue = 6.49


Req: # pKd lookup, item "N=C(N)NCCC[C@H](N)C(=O)O"
Resp: 7.04

====

target: UniProt P0AEU0; assay: biochemical; conditions: KD fitted to SAXS Vc curves, DESY, 4s exposure, HisBP 20 µM
assayMetric: pKd
Just the number, please; pKd means minus log10 of the concentration in mol/L.

[[record]]
compound = "N=C(N)NCCC[C@H](N)C(=O)O [Arg, arginine]"
assaymetric = "pKd"
endpointvalue = 5.20


Below: the item to evaluate.
Req: # pKd lookup, item NCCCC[C@H](N)C(=O)O [Lys, lysine]
Resp: 4.36

====

molecular target: histidine-binding protein (HisBP) (Escherichia coli); test: biochemical; conditions: KD fitted to SAXS Rg curves, DESY, 4s exposure, HisBP 40 µM
Below: a set of entries, each annotated with reported Kd.
Numbers only here, please. The scale is µM.

[[record]]
compound = "N=C(N)NCCC[C@H](N)C(=O)O [Arg, arginine]"
endpointvalue = 150

[[record]]
compound = "NCCCC[C@H](N)C(=O)O [Lys, lysine]"
endpointvalue = 0.086


Below: the item to evaluate.
Req: # Kd lookup, item N[C@@H](Cc1c[nH]cn1)C(=O)O [His, histidine]
Resp: 4.2

====

Below: a set of entries, each annotated with reported Kd.
biological target: UniProt:P0AEU0; test: biochemical; conditions: KD fitted to SAXS Rg curves, DESY, 4s exposure, HisBP 20 µM
Numbers only here, please. The scale is µM.

[[record]]
smilesrepr = "N[C@@H](Cc1c[nH]cn1)C(=O)O"
systemundertest = "UniProt:P0AEU0"
unitdescriptor = "µM"
endpointvalue = 0.0027

[[record]]
smilesrepr = "N=C(N)NCCC[C@H](N)C(=O)O"
systemundertest = "UniProt:P0AEU0"
unitdescriptor = "µM"
endpointvalue = 15


Req: Request: Kd, test system UniProt:P0AEU0, entry "NCCCC[C@H](N)C(=O)O"
Resp: 38
